Species: Homo sapiens
assay info: Selectivity ratio of RBA for ERbeta (unknown origin) to RBA for ERalpha (unknown origin)
Some molecules, each annotated with its measured Selectivity ratio.
Could you keep your reply to the number by itself?

// solved cases for Selectivity ratio follow
`C[C@]12CC=C(c3ccc(O)c(Cl)c3Cl)C[C@H]1CC[C@@H]2O` yielded Selectivity ratio of 18.3

Record `C[C@]12CC=C(c3ccc(O)cc3Cl)C[C@H]1CC[C@@H]2O` . Reported Selectivity ratio: 2

molecule `C[C@]12CC=C(c3cc(F)c(O)c(F)c3Cl)C[C@H]1CC[C@@H]2O` , Selectivity ratio observed: 1.8

Lab note: measured Selectivity ratio of `C[C@]12CC[C@H](c3ccc(O)c(F)c3)C[C@H]1CC[C@@H]2O` was 8.4

Measured Selectivity ratio of `C[C@]12CC[C@H](c3ccc(O)cc3)C[C@@H]1CC[C@@H]2O` : 4.2

---
The molecule identified as `C[C@]12CC=C(c3ccc(O)cc3)C[C@@H]1CC[C@@H]2O` registered its Selectivity ratio at 4.7

Briefly, Selectivity ratio measured for `C[C@]12CC=C(c3cc(F)c(O)cc3F)C[C@H]1CC[C@@H]2O` : 6.1
